Experimental target: T1, Human IL-18Rα ectodomain (amino acids 19-329), biotinylated (human, UniProt Q13478 19-329, biotin on the AviTag (BirA ligase))
T1 construct: range 19-329; Secreted from insect cells (gp67 signal peptide removed); also called hIL-18Rα; hIL18Rα
T1 sequence: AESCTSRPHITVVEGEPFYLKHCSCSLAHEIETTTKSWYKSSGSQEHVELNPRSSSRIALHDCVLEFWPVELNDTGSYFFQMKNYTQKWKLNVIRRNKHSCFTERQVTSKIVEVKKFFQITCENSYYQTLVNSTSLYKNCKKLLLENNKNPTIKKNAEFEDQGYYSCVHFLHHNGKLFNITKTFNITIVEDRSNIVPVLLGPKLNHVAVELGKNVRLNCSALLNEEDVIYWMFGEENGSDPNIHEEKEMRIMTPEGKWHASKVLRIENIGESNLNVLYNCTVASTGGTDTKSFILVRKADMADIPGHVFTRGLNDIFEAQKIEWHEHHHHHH
Protocol description: SPR (Biacore T100), hIL-18Rα as surface ligand; Exp 2
pKd: −log10 of the molar value.
List of pKd values.

Binder: SEQ ID NO: 91 (second generation human DR-IL-18 variant 6-29) (ligand, Engineered variant; recombinant soluble analyte in SPR and cell assays) YFGKLESKLSVIRNLNDQVLFIDQGNRPLFEDMTDSDCRDNAPRTIFIISKYSDSRARGLAVTISVKCEKISTLSCENKIISFKEMNPPDNIKDTKSDIIFFQRNVPGHGRKMQFESSSYEGYFLACEKERDLFKLILKKEDELGDRSIMFTVQNED
pKd: 8.68

Binder: SEQ ID NO: 89 (second generation human DR-IL-18 variant 6-12) (ligand, Engineered variant; recombinant soluble analyte in SPR and cell assays) YFGKLESKLSVIRNLNDQVLFIDQGNRPLFEDMTDSDCRDNAPRTIFIISKYSDSLARGLAVTISVKCEKISTLSCENKIISFKEMNPPDNIKDTKSDIIFFQRDVPGHSRKMQFESSSYEGYFLACEKERDLFKLILKKEDELGDRSIMFTVQNED
pKd: 8.74

Binder: SEQ ID NO: 90 (second generation human DR-IL-18 variant 6-27) (ligand, Engineered variant; recombinant soluble analyte in SPR and cell assays) YFGKLESKLSVIRNLNDQVLFIDQGNRPLFEDMTDSDCRDNAPRTIFIISKYSDSRARGLAVTISVKCEKISTLSCENKIISFKEMNPPDNIKDTKSDIIFFARSVPGHGRKTQFESSSYEGYFLACEKERDLFKLILKKEDELGDRSIMFTVQNED
pKd: 8.41

Binder: SEQ ID NO: 87 (second generation human DR-IL-18 variant 6-31) (ligand, Engineered variant; recombinant soluble analyte in SPR and cell assays) YFGKLESKLSVIRNLNDQVLFIDQGNRPLFEDMTDSDCRDNAPRTIFIISKYGDSGARGLAVTISVKCEKISTLSCENKIISFKEMNPPDNIKDTKSDIIFFERDVPGHSGKVQFESSSYEGYFLACEKERDLFKLILKKEDELGDRSIMFTVQNED
pKd: 7.82

Values from patent US20230277625A1
